These measurements were taken from PubChem BioAssay (NCATS).

- target.or.system: Nuclear receptor subfamily 1 group I member 3 (Homo sapiens) (UniProt Q14994)
- Sequence (Q14994 whole entry, looked up): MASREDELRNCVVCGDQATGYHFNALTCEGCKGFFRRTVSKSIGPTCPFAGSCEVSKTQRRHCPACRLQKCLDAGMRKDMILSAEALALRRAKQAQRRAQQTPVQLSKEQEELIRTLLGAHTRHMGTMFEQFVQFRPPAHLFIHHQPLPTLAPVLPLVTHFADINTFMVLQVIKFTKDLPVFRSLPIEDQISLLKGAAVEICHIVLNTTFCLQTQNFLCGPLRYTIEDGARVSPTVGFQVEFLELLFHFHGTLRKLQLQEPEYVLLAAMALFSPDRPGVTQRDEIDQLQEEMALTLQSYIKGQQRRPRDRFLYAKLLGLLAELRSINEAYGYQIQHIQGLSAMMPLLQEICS
- assay.remarks: qHTS for Constitutive Androstane Receptor (CAR) Antagonist screened against the NCATS CANVASS Library (AID 1347372); further: potency means the concentration at half of the fitted maximal effect
- conditions: HepG2-hCAR-CYP2B6 luciferase, CITCO-stimulated antagonist mode; series mostly up to 46.1 µM
- Description: Natural products and their derivatives continue to be wellsprings of nascent therapeutic potential. […] To address this issue, the Canvass library of natural products was assembled (https://tripod.nih.gov/canvass), in collaboration with academic and industry researchers, for quantitative high-throughput screening (qHTS) across a diverse set of cell-based and biochemical assays. […]
Inconclusive results are not listed. Calls of active or inactive are those of the source. The call rests on the fitted dose curve; in most records, active means well fitted inhibition curve with a large enough effect; inconclusive means small, poorly fitted or top-dose-only effect; inactive means no such curve, though single readings can be large or run the other way. Bridge positions count the residues as written; N and C are the ends. Square brackets hold non-standard residues; d marks the D form. Side chains are listed from the residue outwards. Peptide text beside a SMILES is read from it. * marks the point of attachment. ξ: configuration not given here. Phg(4-OMe) = COc1ccc([C@H](N)C(=O)O)cc1; d(aIle) = CC[C@H](C)[C@@H](N)C(=O)O; d(aThr) = C[C@@H](O)[C@@H](N)C(=O)O; NMeF = CN[C@@H](Cc1ccccc1)C(=O)O; Isobutyryl = CC(C)C(=O)*; ξL = CC(C)CC(N)C(=O)O
test.readout: Potency

{"columns": ["compound", "endpoint.result"],
 "data": [
  ["CC[C@@H](C)[C@H]1NC(=O)C(CC(C)C)NC(=O)[C@@H](CC(C)C)NC(=O)[C@H](Cc2c[nH]c3ccccc23)NC(=O)CNC(=O)[C@@H](CC(N)=O)NC1=O (stereo partly drawn) (cyclo(GW[dL][ξL][dI][dN]))", "inactive"],
  ["CC(=O)N[C@H](C)c1nc(/C=C/C=C/C(=O)CC2CC(=O)CC[C@]2(C)O)cs1 (some centres undefined)", "inactive"],
  ["CC[C@H](C)[C@H]1NC(=O)[C@@H](NC(=O)C(C)C)[C@@H](C)OC(=O)[C@H](COC(=O)CNC(C)=O)NC(=O)[C@@H]([C@@H](C)O)NC(=O)[C@H](Cc2ccccc2)N(C)C(=O)[C@H](c2ccc(OC)cc2)NC1=O (Isobutyryl-T[d(aIle)][Phg(4-OMe)][NMeF][d(aThr)]S([Gly-Ac]); ester 1-C)", "inactive"],
  ["C/C(=C\\[C@@H](C)CC/C=C/CC/C=C/C(=O)O)[C@@H](O)[C@H](C)C(=O)CCCC1CC(=O)NC(=O)C1", "inactive"],
  ["C=C[C@]1(C)CC[C@@H]([C@H](C)C(=O)CC=C(C)C)O1", "inactive"],
  ["CC[C@H]1[C@@H](C)[C@@H](c2cc(OC)c(OC)cc2OC)[C@H](C)[C@@H](c2cc(OC)c(OC)cc2OC)[C@@]12C=C(OC)C(=O)C=C2OC", "inactive"],
  ["COc1cc([C@@H]2c3cc4c(cc3C[C@@]3(O[C@@H]5O[C@H](CO)[C@@H](O)[C@H](O)[C@H]5O)COC(=O)[C@H]23)OCO4)cc(OC)c1OC", "66 nM (active)"],
  ["CC[C@H]1[C@H](C)[C@H](c2cc(OC)c(OC)cc2OC)[C@@H](C)[C@H](c2cc(OC)c(OC)cc2OC)[C@@]12C=C(OC)C(=O)C=C2OC", "inactive"],
  ["CN1CC[C@@]23c4ccccc4N[C@@H]1[C@@]21CCN(C)[C@@H]3Nc2ccccc21", "inactive"],
  ["C[C@H]1C=C[C@H]2CCCC[C@@H]2[C@H]1C(=O)[C@H]1CC2=C(C(=O)O)CCN2C1=O", "inactive"],
  ["CC1=C(C)C(=O)OC(C(C)C2(O)CCC3C4C5OC5C5(O)CC=CC(=O)C5(C)C4CCC32C)C1 (centres undefined)", "inactive"],
  ["CC(CCC[C@]1(C)C(=O)C=C[C@@]23C[C@]4(C)O[C@@H](C[C@@H]4[C@H]2O)C31)C(=O)O (some centres undefined)", "inactive"],
  ["COc1cc2ccc(=O)oc2c(O)c1O[C@@H]1O[C@H](CO)[C@@H](O)[C@H](O)[C@H]1O", "inactive"],
  ["C=CC(C)(C)C(=O)[C@@H](C)[C@@H]1CC[C@@](C)(C=C)O1", "inactive"]
]}
